Where these numbers come from: PubChem BioAssay

ASSAY SUMMARY: PSAC antagonists in infected red cells, primary screen, cell-based, P. falciparum Indochina, OD700, 1 h (AID 1154)
SETTINGS: P. falciparum Indochina infected RBC osmotic lysis, higher = more signal, called active from +8 up or from −8 down
Below: a set of entries, each annotated with reported z-score.

{"columns": ["MOLECULE", "z-score"],
 "data": [
  ["CC(=O)OC[C@H]1O[C@H](CC=NOC[C@@H](O)COCc2ccco2)C=C[C@@H]1OC(C)=O", 0.77],
  ["CC(C)(C)N1C(=O)[C@H]2[C@H]3[C@H](O)[C@H](O)CC(=NOC[C@@H](O)COCc4ccco4)[C@H]3CC[C@H]2C1=O", 1.18],
  ["CC(CCC(=O)OC[C@H]1O[C@H](C#Cc2ccccc2)C=C[C@@H]1Oc1ccc(C)cc1)=NOC[C@@H](C)[C@H](OCc1ccccc1)C(C)C", 0.551],
  ["CCOC(=O)[C@H](CC(C)C)NC(=O)CCC1CC(OC(=O)NCCc2ccc(F)cc2)CC2(CCCC(COC(=O)NCCCN3CCCC3=O)O2)O1 (stereo partly specified)", 1.3],
  ["CCOC(=O)CCN1C(=O)[C@H]2[C@H]3[C@H](O)[C@H](O)CC(=NOCC=C(C)CCC=C(C)C)[C@H]3CC[C@H]2C1=O", 1.09],
  ["CCN1C(=O)[C@H]2[C@H]3[C@H](O)[C@H](O)CC(=NOC[C@@H](O)COCc4ccco4)[C@H]3CC[C@H]2C1=O", -0.392],
  ["CCOC(=O)CCN1C(=O)[C@H]2[C@H]3[C@H](O)[C@H](O)CC(=NO[C@@H]4O[C@H](CO)[C@@H](O)[C@H](O)[C@H]4O)[C@@H]3CC[C@H]2C1=O", 3.62],
  ["CC=CC1=C(CO)[C@H](O)[C@H]2O[C@H]2[C@@H]1O", -0.312],
  ["CC(C)CON=C1[C@H]2CCn3c(=O)n(C)c(=O)n3[C@H]2[C@H](O)[C@@H]2O[C@H]12", -0.399],
  ["CC(CCN1CCc2nc(-c3ccccc3)c(-c3ccccc3)cc2C1)=NO[C@H](C)c1cn([C@H](CO)Cc2ccccc2)nn1", 1.6],
  ["C=CC[C@@H]1C=C[C@H](ON=C(C)CCN2CCCCc3nc(C)c(C)cc32)[C@@H](CO)O1", 1.07],
  ["CC(C)=CCCC(C)=CCON=C1C[C@@H](O)[C@@H](O)[C@@H]2[C@@H]3C(=O)N(Cc4ccc5c(c4)OCO5)C(=O)[C@@H]3CC[C@H]12", 11.1],
  ["COCC#Cc1ccc([C@@H]2N[C@H](C(=O)O)CC[C@H]2C)cc1", -0.398],
  ["CCOC(=O)CCN1C(=O)[C@H]2[C@H]3[C@H](O)[C@H](O)CC(=NNC(=O)OCC)[C@H]3CC[C@H]2C1=O", 3.88],
  ["C#CCCCON=C1C[C@@H](O)[C@@H](O)[C@@H]2[C@@H]3C(=O)N(C4CCCCC4)C(=O)[C@@H]3CC[C@@H]12", 1.17],
  ["O=C1[C@H]2[C@H]3[C@H](O)[C@H](O)CC(=NO[C@@H]4O[C@H](CO)[C@@H](O)[C@H](O)[C@H]4O)[C@@H]3CC[C@H]2C(=O)N1C1CCCCC1", 0.785],
  ["CN1CCc2nc(-c3ccccc3)c(-c3ccccc3)cc2C1", 0.296],
  ["CCN1C(=O)[C@H]2[C@H]3[C@H](O)[C@H](O)CC(=NOCC(C)C)[C@H]3CC[C@H]2C1=O", -0.135],
  ["C=CC[C@@H]1C=CC(ON=C(C)C)[C@@H](CO)O1 (stereo partly specified)", 0.42],
  ["CCOC(=O)CCN1C(=O)[C@H]2[C@H]3[C@H](O)[C@H](O)CC(=O)[C@@H]3CC[C@H]2C1=O", 0.781],
  ["COC(=O)CC=C[C@@H](C)[C@@H](C=NOC[C@@H](O)COCc1ccco1)OC", 0.202],
  ["CO[C@H]1COC(=O)CCC[C@H](C)[C@H](OC)COC(=O)CC=C[C@@H]1C", -0.972],
  ["COc1ccc(COC(=O)NN=C2C[C@@H](O)[C@@H](O)[C@@H]3[C@@H]4C(=O)N(C(C)(C)C)C(=O)[C@@H]4CC[C@@H]23)cc1", 0.339],
  ["O=C1[C@H]2[C@H]3[C@H](O)[C@H](O)CC(=NOC[C@@H](O)COCc4ccco4)[C@@H]3CC[C@H]2C(=O)N1Cc1ccc2c(c1)OCO2", 30],
  ["CON=C[C@@H](OC)[C@H](C)C=CCC(=O)OC", 0.0283],
  ["CO[C@@H](C1CCCCC1)[C@@H](C)[C@H](OCc1cccc(Br)c1)[C@@H](C)CO", 2.08],
  ["COCCNC(=O)OCC1CCCC2(CC(OC(=O)NCc3cccc4ccccc34)CC(CCC(=O)N[C@@H](C)C(=O)OC)O2)O1 (stereo partly specified)", -1.58],
  ["COC(=O)[C@H](CCSC)NC(=O)CC=C[C@@H](C)CO", 0.291],
  ["COc1ccc(O[C@H]2C=C[C@@H](c3ccccc3)O[C@@H]2CON=C(C)CCN2CCCc3nc(C)c(C)cc32)cc1", 4.35],
  ["CC(C)(C)N1C(=O)[C@H]2[C@H]3[C@H](O)[C@H](O)CC(=NNC(=O)OCc4ccccc4)[C@H]3CC[C@H]2C1=O", 0.988],
  ["CCOC(=O)[C@H](CC(C)C)NC(=O)CCC1CC(OC(=O)NCc2ccc3c(c2)OCO3)CC2(CCCC(COC(=O)NCCOC)O2)O1 (stereo partly specified)", 1.3]
]}
